System: EKVX NSCLC
testDescription: NCI tumour cell line growth inhibition, 48 h
measuredParameter: TGI (µM)
Just the number in µM, nothing appended.

{"compound": "CCCS(=O)(=O)c1nc(NC2CC2)cc(-c2ccc3c(ccn3C3CC(C)(C)NC(C)(C)C3)c2)n1", "targetOrTestSystem": "EKVX NSCLC", "measuredParameter": "TGI", "recordedNumber": 3.71}

# next compound below
Input line: Requested field: TGI. Item: FC(F)(F)c1ccc2c(Nc3cccc(C4CC(c5ccccc5)=NN4c4ccc(Cl)cc4)c3)ccnc2c1 (stereo not drawn)
Output line: 59.5

---

Tested on: NCI-H522 lung
testDescription: NCI tumour cell line growth inhibition, 48 h
Here the recorded GI50 is given for each entry.

// below: answered compounds
{"compound": "CCCCCCNc1nc(NCCCCCC)c2[nH]c(NCCCCCC)nc2n1", "result": "2.14 µM"}
{"compound": "CCN(Cc1c(F)cccc1F)c1ccc(CO)c(Cl)c1", "result": "15.1 µM"}

Input line: // query GI50 value for entry COC(=O)c1c(O)ccc2[nH]c(C)c(C#N)c12
Output line: 83.4 µM

Input line: Now this one: Cc1ccc(-c2nc(C(Cl)Cl)n3nc(-c4ccccc4)cc3n2)cc1
Output line: > 100 µM

Input line: And CNC(=O)c1ccc(-c2cnc3ncc(Cc4ccc5ncccc5c4)n3n2)cc1F ?
Output line: 38 µM

---

Tested on: NCI-H23 lung
testDescription: NCI tumour cell line growth inhibition, 48 h
Listing of recorded TGI by entry.

Input line: Which TGI value belongs to O=c1c2cc3c(=O)n(CCc4ccccc4CO)c(=O)c3cc2c(=O)n1CCc1ccccc1CO ?
Output line: > 100 µM

Input line: // next record Cc1ccc2/c(=C/c3ccc(N(C)C)cc3)c3cc(-c4ccccc4)[n+](C)n3c2c1
Output line: 1.9 µM

Input line: Now the compound COc1cc(-c2c3c(cc4c2OCO4)[C@@H](Nc2ccc4c(c2)Cc2cc(N[C@@H]5c6cc7c(cc6C(c6cc(OC)c(O)c(OC)c6)[C@H]6C(=O)OC[C@H]56)OCO7)ccc2-4)[C@H]2COC(=O)[C@@H]2C3)cc(OC)c1O (some centres not stated)
Output line: > 100 µM

Input line: What do we get for CN1CCN(C)C1c1cccc(C2N(C)CCN2C)c1 ?
Output line: > 100 µM

Input line: Try this compound next: CCOC(=O)c1csc(NC(=O)CCCC#N)n1
Output line: > 100 µM

Input line: Try CCN(CC)C(=S)SS(=O)(=O)c1ccc(C)cc1 next.
Output line: > 100 µM

Input line: // query: CCCCCCNc1nc(NCCCCCC)c2[nH]c(NCCCCCC)nc2n1
Output line: 23.3 µM

---

System: IGROV1 ovarian
testDescription: NCI tumour cell line growth inhibition, 48 h
Each entry below carries its reported TGI.

A selection of reference data follows.
{"molecule": "c1cc[c]([Sn]([S]c2cccc3cccnc23)([c]2ccccc2)[c]2ccccc2)cc1", "TGI": "0.351 µM"}
{"molecule": "CCOC(=O)c1ccc(C(=O)/C(C(=O)OC(C)(C)C)=C2\\CCCN2C)n1C", "TGI": "> 100 µM"}
{"molecule": "COc1ccc(/C(C)=N/NC(=S)N(C)C)c(O)c1", "TGI": "23.2 µM"}
{"molecule": "Cc1ccc(C(=O)c2[nH]c(Nc3cc(C)ccn3)c(C(=S)Nc3ccccc3)c2N)cc1", "TGI": "> 100 µM"}
{"molecule": "CCCNCc1cc(C)cc2c1nc(N1CCNCC1)n2Cc1cc(C)c(F)c(C)c1", "TGI": "25.1 µM"}

Input line: Checklist item: TGI tested on IGROV1 ovarian, entry CC(=O)OCCOCBr , value?
Output line: > 100 µM

Input line: Can you check Cc1cc(C)nc(NS(=O)(=O)c2ccc(Nc3c4ccccc4nc4c(C(=O)NCCO)cccc34)cc2)n1 next?
Output line: > 100 µM

Input line: Repeat with O=C1c2ccccc2-c2cccc3ccc(Cc4ccccc4)c1c23
Output line: > 100 µM

Input line: And Cc1noc(C)c1-c1ccc2[nH]c(=O)n3c2c1OC[C@@H]3c1ccccn1 ?
Output line: > 100 µM

Input line: Let us now turn to CC1=Nc2c(ccc3c2C(=O)c2ccccc2C3=O)NC(c2ccncc2)C1 (configuration not stated)
Output line: > 100 µM

Input line: Try this molecule next: O=c1c2cc3c(=O)n(CCc4ccccc4CO)c(=O)c3cc2c(=O)n1CCc1ccccc1CO
Output line: > 100 µM

---

Test system: SNB-19 CNS
testDescription: NCI tumour cell line growth inhibition, 48 h; in the data active = GI50 below about 0.43 µM; inactive = the rest
Result category, one only: 1.0 for active, 0.0 for inactive

For orientation, consider the following solved cases.
{"compound": "C=C1CC(COc2cc(Cl)nc(N)n2)C1", "classification": 0.0}
{"compound": "COc1cc(/C=C2\\CC3C4CC=C5CC(N6CCCC6)CC[C@]5(C)C4CC[C@]3(C)C2OC(C)=O)ccc1OCCN1CCCC1 (stereo partly specified)", "classification": 0.0}
{"compound": "FC(F)(F)c1ccc2c(Nc3cccc(C4CC(c5ccccc5)=NN4c4ccc(Cl)cc4)c3)ccnc2c1 (stereo unspecified)", "classification": 0.0}
{"compound": "COc1ccc(-c2cc(-c3cc(Cl)ccc3Cl)nc3nc(=S)[nH]c(N)c23)cc1", "classification": 0.0}
{"compound": "CCN(Cc1c(F)cccc1F)c1ccc(CO)c(Cl)c1", "classification": 0.0}

Moving on to another compound below.
Input line: Recorded test outcome, item O=C1c2ccccc2-c2c1c1ccccc1c(=O)n2CCNCCCNCCn1c2c(c3ccccc3c1=O)C(=O)c1ccccc1-2
Output line: 1.0

---

Test system: SF-268 CNS
testDescription: NCI tumour cell line growth inhibition, 48 h
measuredParameter: TGI

{"compound": "Cc1cc(C)nc(NS(=O)(=O)c2ccc(Nc3c4ccccc4nc4c(C(=O)N5CCN(CCOS(C)(=O)=O)CC5)ccc(Cl)c34)cc2)n1", "targetOrTestSystem": "SF-268 CNS", "result": "> 100 µM"}
{"compound": "COc1cc2c(cc1OCCCOc1cc3c(cc1OC)C(=O)N1CCC[C@H]1CN3)N=C[C@@H]1CCCN1C2=O", "targetOrTestSystem": "SF-268 CNS", "result": "0.473 µM"}
{"compound": "c1ccc2c(c1)N=C(c1cccc3ccccc13)CC(c1cccc3ccccc13)S2 (stereo not given)", "targetOrTestSystem": "SF-268 CNS", "result": "20.4 µM"}

Input line: Record CC1(C)CCc2cc3c(cc2O1)OCCC3=O : what is its TGI with SF-268 CNS?
Output line: > 100 µM

Input line: And for COC(=O)C(=O)C(C(=O)C(=O)Nc1cc([N+](=O)[O-])ccc1C#N)c1nc2ccccc2[nH]c1=O (stereo not given) ?
Output line: > 100 µM

Input line: Repeat for the following compound: Cc1cc(C)nc(NS(=O)(=O)c2ccc(Nc3c4ccccc4nc4c(C(=O)NCCO)cccc34)cc2)n1
Output line: 58.6 µM

Input line: Note, next up: NNC(=O)c1cccc2c1Oc1ccccc1S2
Output line: > 100 µM

Input line: Try the compound Cc1noc(C)c1-c1ccc2[nH]c(=O)n3c2c1OC[C@@H]3c1ccccn1
Output line: > 100 µM

Input line: Entry to check: COC(=O)c1cc(C(=O)OC)cc(-c2ccc3c(c2)-c2nc4c(c(-c5ccc(OC)cc5)c2CC3)CCc2ccc(-c3cc(C(=O)OC)cc(C(=O)OC)c3)cc2-4)c1
Output line: > 100 µM

Input line: Again, but for CC1(C)OC(=O)C=C([O-])O1.CC1(C)OC(=O)C=C([O-])O1.O=c1c(O)c(-c2ccc([O-])cc2[O-])oc2cc(O)cc(O)c12.[Ti+4]
Output line: 95.5 µM

---

This listing pairs molecules with measured TGI.
System: SK-MEL-28 melanoma
testDescription: NCI tumour cell line growth inhibition, 48 h

{"molecule": "COc1cc(OC)c(C2c3cc4c(cc3OC(N3CCOCC3)C2C)OCO4)c(OC)c1 (stereo not drawn)", "targetOrTestSystem": "SK-MEL-28 melanoma", "measuredParameter": "TGI", "result": "> 100 µM"}
{"molecule": "COC(=O)C(CCCCNC(=O)CNC(=O)OCc1ccccc1)NC(=O)C(CCCCNC(=O)CNC(=O)OCc1ccccc1)NC(=O)OCc1ccccc1 (stereo not drawn)", "targetOrTestSystem": "SK-MEL-28 melanoma", "measuredParameter": "TGI", "result": "> 100 µM"}

Turning now to a further molecule:
Input line: Provide value of TGI for this record tested with SK-MEL-28 melanoma: CC1(C)OC(=O)C=C([O-])O1.CC1(C)OC(=O)C=C([O-])O1.O=c1c(O)c(-c2ccc([O-])cc2[O-])oc2cc(O)cc(O)c12.[Ti+4]
Output line: > 100 µM
